Documented shrunken log2 fold change across a set of sequences
Test system: Escherichia coli TOP10
assay.info: shrunken log2 fold change of peptide-encoding DNA abundance (4.5 h post-induction vs induction); higher = less antimicrobial activity (less host growth inhibition)
cond: time post-induction: 4.5 h; library: site-saturation at positions 5, 18, 19, 20

Example cases with answers are listed next.
Name the recorded shrunken log2 fold change of the item RRIRKRPPRLPRPRPRPSVQPRP in your answer. 0.0869

Identify measured shrunken log2 fold change associated with RRIRNRPPRLPRPRPRPHFMPRP -0.409

Report measured shrunken log2 fold change; entry is RRIRPRPPRLPRPRPRPSCEPRP -0.386

Continuing:
Tell us which shrunken log2 fold change value is on record for RRIRFRPPRLPRPRPRPQDAPRP -0.0849

In one line, give reported shrunken log2 fold change of the entry RRIRIRPPRLPRPRPRPEFQPRP . -0.129

Let me know recorded shrunken log2 fold change for RRIRQRPPRLPRPRPRPWSNPRP , thanks. -0.00145

Answer with the recorded shrunken log2 fold change for the sequence listed here: RRIRFRPPRLPRPRPRPGSLPRP -0.479

Supply shrunken log2 fold change value. Item: RRIRKRPPRLPRPRPRPMYNPRP -0.315

###

Test system: Escherichia coli TOP10
assay.info: shrunken log2 fold change of peptide-encoding DNA abundance (4.5 h post-induction vs induction); higher = less antimicrobial activity (less host growth inhibition)
cond: time post-induction: 4.5 h; library: site-saturation at positions 5, 18, 19, 20
The sequences listed here are annotated with their shrunken log2 fold change.
Reply briefly: the number, and no unit.

Worked cases, shrunken log2 fold change given:
Please report the measured shrunken log2 fold change for RRIRCRPPRLPRPRPRPFYIPRP -0.58

Specify measured shrunken log2 fold change for RRIRHRPPRLPRPRPRPLFCPRP . -0.604

Read off the recorded shrunken log2 fold change for RRIRMRPPRLPRPRPRPYPWPRP -0.274

Identify shrunken log2 fold change associated with the sequence RRIRLRPPRLPRPRPRPHGNPRP -0.186

***
Let me know recorded shrunken log2 fold change for RRIRCRPPRLPRPRPRPFWGPRP , thanks. 0.0697

State, in one line, measured shrunken log2 fold change of RRIRHRPPRLPRPRPRPGMFPRP -0.178

Specify measured shrunken log2 fold change for RRIRARPPRLPRPRPRPCFCPRP . 0.25

For RRIRVRPPRLPRPRPRPKDEPRP , write its shrunken log2 fold change. -0.205

Supply recorded shrunken log2 fold change for RRIRYRPPRLPRPRPRPRNNPRP here. -0.738

###

System: Escherichia coli TOP10
assay.info: shrunken log2 fold change of peptide-encoding DNA abundance (4.5 h post-induction vs induction); higher = less antimicrobial activity (less host growth inhibition)
cond: time post-induction: 4.5 h; library: site-saturation at positions 5, 18, 19, 20
# shrunken log2 fold change listing for each entry below

Fill in reported shrunken log2 fold change for this entry: RRIRMRPPRLPRPRPRPENYPRP -0.0708

Return reported shrunken log2 fold change. Input sequence: RRIRMRPPRLPRPRPRPTHFPRP 0.86

Provide measured shrunken log2 fold change value, entry: RRIRWRPPRLPRPRPRPHKKPRP 0.028

Please look at this sequence and report its shrunken log2 fold change: RRIRIRPPRLPRPRPRPHWMPRP -1.57

***
Name the recorded shrunken log2 fold change of the item RRIRCRPPRLPRPRPRPVCRPRP in your answer. -0.0309

Determine its reported shrunken log2 fold change: RRIRIRPPRLPRPRPRPIDQPRP -0.341

For the sequence RRIRDRPPRLPRPRPRPPPMPRP , report shrunken log2 fold change. 0.519

State its shrunken log2 fold change for this sequence: RRIRKRPPRLPRPRPRPMCLPRP -0.0392

###

Test system: Escherichia coli TOP10
assay.info: shrunken log2 fold change of peptide-encoding DNA abundance (4.5 h post-induction vs induction); higher = less antimicrobial activity (less host growth inhibition)
cond: time post-induction: 4.5 h; library: site-saturation at positions 5, 18, 19, 20
# shrunken log2 fold change values compiled below
Just the number, please, no unit after it.

Known results for sequences:
// fetch shrunken log2 fold change given entry RRIRLRPPRLPRPRPRPHAEPRP -0.203

Tell me its shrunken log2 fold change given RRIRDRPPRLPRPRPRPKCCPRP as the entry. 0.112

Give me measured shrunken log2 fold change, please, for this sequence: RRIRVRPPRLPRPRPRPFETPRP -0.0538

Give the reported shrunken log2 fold change for this sequence. RRIRFRPPRLPRPRPRPGRQPRP 0.179

Given RRIRRRPPRLPRPRPRPPPPPRP , respond with its shrunken log2 fold change. 1.03

***
Consider the sequence RRIRHRPPRLPRPRPRPWFGPRP . State its measured shrunken log2 fold change. -0.0191

Kindly indicate its recorded shrunken log2 fold change. Item: RRIRTRPPRLPRPRPRPHGTPRP 0.219

Output shrunken log2 fold change of RRIRHRPPRLPRPRPRPGFTPRP -0.358

###

System: Escherichia coli TOP10
assay.info: shrunken log2 fold change of peptide-encoding DNA abundance (4.5 h post-induction vs induction); higher = less antimicrobial activity (less host growth inhibition)
cond: time post-induction: 4.5 h; library: site-saturation at positions 5, 18, 19, 20
property: shrunken log2 fold change
Would you mind answering with just the numeric figure?

# count of solved cases: 3
Return value of shrunken log2 fold change for input RRIRVRPPRLPRPRPRPGAAPRP , no commentary. 0.653

Quickly give me recorded shrunken log2 fold change for RRIRNRPPRLPRPRPRPIDRPRP 0.00281

Let me know recorded shrunken log2 fold change for RRIRQRPPRLPRPRPRPFGYPRP , thanks. -0.148

Further cases:
Identify the reported shrunken log2 fold change for the following entry. RRIRARPPRLPRPRPRPEAFPRP 0.0217

Find the measured shrunken log2 fold change of RRIRRRPPRLPRPRPRPWRIPRP and report it. 0.0818

Give the measured shrunken log2 fold change for RRIRERPPRLPRPRPRPQLGPRP 0.329

Answer with the recorded shrunken log2 fold change of RRIRQRPPRLPRPRPRPQGHPRP only. -0.017

Consider the sequence RRIRYRPPRLPRPRPRPGTPPRP . State its measured shrunken log2 fold change. 1.16

Query shrunken log2 fold change for RRIRARPPRLPRPRPRPRNCPRP 0.849

Please list shrunken log2 fold change recorded for the sequence RRIRQRPPRLPRPRPRPDDYPRP 0.0372

Please indicate shrunken log2 fold change recorded for RRIRCRPPRLPRPRPRPQCIPRP -0.458

Tell us which shrunken log2 fold change value is on record for RRIRVRPPRLPRPRPRPNVKPRP -0.159

Identify shrunken log2 fold change associated with the sequence RRIRGRPPRLPRPRPRPIVSPRP 0.158

State its shrunken log2 fold change for this sequence: RRIRRRPPRLPRPRPRPIMKPRP -0.0396

Using known records, supply shrunken log2 fold change for RRIRMRPPRLPRPRPRPVNNPRP -0.0848

###

System: Escherichia coli TOP10
assay.info: shrunken log2 fold change of peptide-encoding DNA abundance (4.5 h post-induction vs induction); higher = less antimicrobial activity (less host growth inhibition)
cond: time post-induction: 4.5 h; library: site-saturation at positions 5, 18, 19, 20
property: shrunken log2 fold change
Field format: numeric only.

In the examples that follow, each entry is paired with its recorded shrunken log2 fold change.
Please give measured shrunken log2 fold change of the following entry: RRIRIRPPRLPRPRPRPLLCPRP -0.462

Give the reported shrunken log2 fold change for this sequence. RRIRYRPPRLPRPRPRPGYNPRP -0.0489

Entry RRIRCRPPRLPRPRPRPSIVPRP needs its shrunken log2 fold change filled in; supply it. -0.965

Dear colleague, please send me the reported shrunken log2 fold change for RRIRIRPPRLPRPRPRPTNVPRP when you can. -0.174

Look up and report measured shrunken log2 fold change for this entry: RRIRRRPPRLPRPRPRPMFVPRP -0.0498

***
Name the recorded shrunken log2 fold change of the item RRIRTRPPRLPRPRPRPVQRPRP in your answer. 0.132

Please list shrunken log2 fold change recorded for the sequence RRIRERPPRLPRPRPRPSECPRP -0.592

Quote shrunken log2 fold change reported for RRIRQRPPRLPRPRPRPVVPPRP please. -0.0392

Return value of shrunken log2 fold change for input RRIRKRPPRLPRPRPRPSSRPRP , no commentary. -0.038

Look up and state reported shrunken log2 fold change for RRIRPRPPRLPRPRPRPKGSPRP 0.0684

Check the records and state shrunken log2 fold change for RRIRMRPPRLPRPRPRPVAYPRP 0.214

Indicate its recorded shrunken log2 fold change; the sequence in question is RRIRDRPPRLPRPRPRPGYSPRP -0.591

Provide shrunken log2 fold change value for the following sequence: RRIRKRPPRLPRPRPRPGTSPRP 0.0376

Provide measured shrunken log2 fold change value, entry: RRIRARPPRLPRPRPRPMGEPRP 0.1

###

Tested on: Escherichia coli TOP10;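 also: peptides expressed intracellularly from a pBAD plasmid library in pooled LB shake-flask culture, induced with 0.3% L-arabinose, DNA abundance read by NGS, three biological replicates, DESeq2 with apeglm shrinkage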
assay.info: shrunken log2 fold change of peptide-encoding DNA abundance (4.5 h post-induction vs induction); higher = less antimicrobial activity (less host growth inhibition)
cond: time post-induction: 4.5 h; library: site-saturation at positions 5, 18, 19, 20
// label = MET if shrunken log2 fold change is not less than -0.06, otherwise NOT MET

Reported shrunken log2 fold change at or above -0.06? RRIRVRPPRLPRPRPRPSQQPRP NOT MET

I'd appreciate it if you could say whether RRIRQRPPRLPRPRPRPLTNPRP has shrunken log2 fold change at least equal to -0.06. NOT MET

***
Hi, just wondering whether RRIRFRPPRLPRPRPRPKTLPRP shows shrunken log2 fold change of -0.06 or higher. NOT MET
